assay: potassium laurate solubility in various solvents (solvent added dropwise under sonication); format: physicochemical; details: thermodynamic from solid; Water; room temperature; read-out: potassium laurate solubility At Room Temperature
measurement-label: solubility

Which solubility is reported for this molecule? CCCCCCCCCCCC(=O)[O-].[K+] [potassium laurate] ~138 mg/mL

* * *

assay: potassium laurate solubility in various solvents (solvent added dropwise under sonication); format: physicochemical; conditions: organic solvent or mixture, thermodynamic from solid; MIBK; 50° C.
measurement-label: solubility

Which solubility is reported for this molecule? CCCCCCCCCCCC(=O)[O-].[K+] [potassium laurate] < 5000 µg/mL

* * *

assay: potassium laurate solubility in various solvents (solvent added dropwise under sonication); format: physicochemical; settings: organic solvent or mixture, thermodynamic from solid; Ethyl Acetate; room temperature; read-out: potassium laurate solubility At Room Temperature
measurement-label: solubility

Which solubility is reported for this compound? CCCCCCCCCCCC(=O)[O-].[K+] [potassium laurate] < 5000 µg/mL

* * *

assay: potassium laurate solubility in various solvents (solvent added dropwise under sonication); format: physicochemical; conditions: organic solvent or mixture, thermodynamic from solid; Ethyl Acetate; 50° C.
measurement-label: solubility

Which solubility is reported for this compound? CCCCCCCCCCCC(=O)[O-].[K+] [potassium laurate] < 5000 µg/mL

* * *

test: potassium laurate solubility in various solvents (solvent added dropwise under sonication); type: physicochemical; conditions: organic solvent or mixture, thermodynamic from solid; Acetone; room temperature; read-out: potassium laurate solubility At Room Temperature
measurement-label: solubility

Which solubility is reported for this compound? CCCCCCCCCCCC(=O)[O-].[K+] [potassium laurate] < 5000 µg/mL

* * *

assay: potassium laurate solubility in various solvents (solvent added dropwise under sonication); type: physicochemical; settings: organic solvent or mixture, thermodynamic from solid; IPA; room temperature; read-out: potassium laurate solubility At Room Temperature
measurement-label: solubility

Which solubility is reported for this compound? CCCCCCCCCCCC(=O)[O-].[K+] [potassium laurate] < 5000 µg/mL

* * *

experiment: potassium laurate solubility in various solvents (solvent added dropwise under sonication); format: physicochemical; conditions: organic solvent or mixture, thermodynamic from solid; Butyl Acetate; 50° C.
measurement-label: solubility

Which solubility is reported for this compound? CCCCCCCCCCCC(=O)[O-].[K+] [potassium laurate] < 5000 µg/mL

* * *

test: potassium laurate solubility in various solvents (solvent added dropwise under sonication); type: physicochemical; settings: organic solvent or mixture, thermodynamic from solid; Butyl Acetate; room temperature; read-out: potassium laurate solubility At Room Temperature
measurement-label: solubility

Which solubility is reported for this compound? CCCCCCCCCCCC(=O)[O-].[K+] [potassium laurate] < 5000 µg/mL

* * *

assay: potassium laurate solubility in various solvents (solvent added dropwise under sonication); type: physicochemical; settings: organic solvent or mixture, thermodynamic from solid; IPA; 50° C.
measurement-label: solubility

Which solubility is reported for this compound? CCCCCCCCCCCC(=O)[O-].[K+] [potassium laurate] < 5000 µg/mL

* * *

experiment: potassium laurate solubility in various solvents (solvent added dropwise under sonication); assay type: physicochemical; conditions: organic solvent or mixture, thermodynamic from solid; MEK; room temperature; read-out: potassium laurate solubility At Room Temperature
measurement-label: solubility

Which solubility is reported for this compound? CCCCCCCCCCCC(=O)[O-].[K+] [potassium laurate] < 5000 µg/mL

* * *

experiment: potassium laurate solubility in various solvents (solvent added dropwise under sonication); assay type: physicochemical; details: organic solvent or mixture, thermodynamic from solid; MEK; 50° C.
measurement-label: solubility

Which solubility is reported for this compound? CCCCCCCCCCCC(=O)[O-].[K+] [potassium laurate] < 5000 µg/mL

* * *

Experiment: potassium laurate solubility in various solvents (solvent added dropwise under sonication)
Format: physicochemical
Settings: organic solvent or mixture, thermodynamic from solid; Methanol; room temperature; read-out: potassium laurate solubility At Room Temperature
Procedure: In order to select the reaction solvents and their optimized volumes, the solubility of potassium laurate in various solvents was checked by adding solvent to dissolve the solids under sonication. A vial was charged with potassium laurate (˜100 mg) and then solvent was added dropwise under sonication. The potassium laurate could not be dissolved with most solvents (200 vol.).
measurement-label: solubility

Which solubility is reported for this compound? CCCCCCCCCCCC(=O)[O-].[K+] [potassium laurate] ~50 mg/mL
